Tested on: PC-3 prostate
procedure summary: NCI-60 one-dose screen, 48 h (100 = growth as untreated, 0 = no growth, -100 = all killed)
condition set: 10 µM unless noted
About 83,000 compounds went through this panel and 20% of them were active in at least one assay; those are over-represented in the sample as a whole. Active and inactive are the calls of the source. The calls were made as follows: active = growth percent below 10; inactive = the rest.
Listed next: entries and their corresponding growth.

As a guide, the following entries are already answered.
compound	growth
Cc1ccc(-c2csc(NC(=O)c3ccccc3CN3C(=O)c4ccccc4C3=O)n2)cc1	91.9% (inactive)
CCN1C2CCC1/C(=C\c1ccc(F)cc1)C(=O)/C2=C/c1ccc(F)cc1	38.5% (inactive)
CC(=O)OC(c1ccccc1)C1CCOC1=O (stereo not given)	100% (inactive)

Ask: Determine from records and report growth for `Ic1ccccc1I`
Reply: 99.7% (inactive)

Ask: For the compound `O=C(O)[C@@H](Cc1ccc2ccccc2c1)NC(=O)n1c2ccccc2c2ccccc21` , give its reported growth.
Reply: 26.7% (inactive)

Ask: Return value of growth for input `O=C(CCl)NNc1nccc(Nc2ccc(S(=O)(=O)Nc3ccncc3)cc2)n1` , no commentary.
Reply: 56% (inactive)

Ask: Hello, please tell me recorded growth for this one: `O=C(O)COc1ccc(Cl)c(Cl)c1`
Reply: 100% (inactive)

Ask: Complete the entry with growth for `COc1ccc(/C=C2\CN(C(=O)C(Cl)Cl)C/C(=C\c3ccc(OC)cc3)C2=O)cc1`
Reply: -8.13% (active)

Ask: Using known records, supply growth for `Cc1c2cccnc2c(C)c2c1c1cc(CO)ccc1n2C`
Reply: 31% (inactive)

Ask: Name the recorded growth of the compound listed here: `CC1(C)CC[C@]2(C(=O)N[C@H](CO)Cc3ccccc3)CC[C@]3(C)C(=CC[C@@H]4[C@@]5(C)CCCNC(C)(C)[C@@H]5CC[C@]43C)[C@@H]2C1`
Reply: 25.7% (inactive)

====

System: HOP-62 NSCLC
procedure summary: NCI-60 one-dose screen, 48 h
condition set: 10 µM unless noted
The panel holds about 83,000 compounds, 20% with a hit somewhere; the sample as a whole holds those more often. Active and inactive are the calls of the source. Rule for the calls: active = growth percent below 10; inactive = the rest.
Can you answer with just one of these options? 1.0 (active), 0.0 (inactive)

Solved cases (8 shown):
compound	class name
O=c1c2ccccc2c(=O)c2c1sc1c(=O)c3ccc(O)cc3c(=O)c12	1.0
Nn1c(=O)c(=O)[nH]c2c(cnn2-c2ccccc2)c1=O	0.0
COc1ccc(C2=CN3CC=CC3CC2=O)cc1 (stereo unspecified)	0.0
C=CCC(CCCC)(C(=O)OCC)C(=O)OCC	0.0
O=C1c2ccccc2C(=O)c2c1c(C(=O)NCc1ccccc1)c1ccccn21	0.0
COc1ccc2c(c1)c(-c1nc(-c3c[nH]c4ncccc34)cs1)cn2CCO	0.0
CS(=O)(=O)Nc1cc(-c2ccc3ncc(C#N)c(Nc4ccc(F)c(Cl)c4)c3c2)cnc1Cl	1.0
c1ccc2c(c1)CCCc1nnc3nc4ccccc4n3c1-2	0.0

Ask: How was `COCCn1cc(-c2csc(-c3c[nH]c4ccc(Br)cc34)n2)c2cccnc21` classified in this test?
Reply: 0.0

Ask: What outcome does the record of this test show for `CCNC(=O)Oc1ccc(/C(=C(/CC)Cc2ccccc2)c2ccc(OCCN3CCCC3)cc2)cc1` ?
Reply: 0.0

Ask: Which outcome was entered for the compound `Nc1nc(N)c(N=Nc2ccccc2)c(-c2ccccc2)n1` in this test?
Reply: 0.0

====

Test system: CAKI-1 renal
procedure summary: NCI-60 one-dose screen, 48 h (100 = growth as untreated, 0 = no growth, -100 = all killed)
condition set: 10 µM unless noted
About 83,000 compounds went through this panel and 20% of them were active in at least one assay; those are over-represented in the sample as a whole. The source made the active and inactive calls. The calls were made as follows: active = growth percent below 10; inactive = the rest.
property name: growth

molecule	growth
C=C1C(=O)O[C@H]2[C@H]1CC/C(COC(=O)CSCSCC(=O)OC/C1=C/CC[C@@]3(C)O[C@H]3[C@H]3OC(=O)C(=C)[C@@H]3CC1)=C\CC[C@@]1(C)O[C@@H]21	15.9% (inactive)
C/C=C(/C)n1cnc2c(Nc3ccccn3)nc(Cl)nc21	94.2% (inactive)
N#CC1CCc2c(c(-c3ccc4nc(N)sc4c3)nc3ccc4[nH]ncc4c23)C1 (stereo not drawn)	11.3% (inactive)

Ask: Read off the recorded growth for CCN1C(=O)N(CC)C2C1NN=c1s/c(=C\c3ccc[nH]3)c(=O)n12 (stereo not drawn)
Reply: 27.5% (inactive)

Ask: For `CCOC(=O)c1ccccc1-c1c2ccc(=[N+](C)C)cc-2oc2cc(N(C)C)ccc12` , write its growth.
Reply: -26.9% (active)

Ask: Give the reported value of growth for this record: `O=C(Nc1ncc(Cc2cc(C(F)(F)F)ccc2Cl)s1)c1cccs1`
Reply: 41.7% (inactive)

Ask: Give the reported growth for this molecule. `CN1CCN(C(=O)C(C)(C)c2ccc(C(=O)Nc3cn4cc(-c5ccncc5)ccc4n3)cc2)CC1`
Reply: -5.37% (active)

Ask: # return recorded growth for entry `C=C1C(=O)O[C@H]2[C@H]1CC/C(COC(=O)/C=C\C(=O)NCc1ccc(Cn3c(=O)sn(CCCCC)c3=O)cc1)=C\CC[C@@]1(C)O[C@@H]21`
Reply: 66.6% (inactive)

Ask: Retrieve growth measured for `CCOC(=O)C#Cc1c(C(=O)OCC)nnn1Cc1ccc(C(F)(F)F)cc1` and print it.
Reply: 0.164% (active)

Ask: State its growth: `COc1ccc(/C=C/C(=O)c2cc3c(N)c(C(=O)Nc4cccc(Cl)c4C)sc3nc2C)cc1`
Reply: 13.2% (inactive)

Ask: Answer with the recorded growth for the molecule listed here: `CCCCNC(=O)Oc1ccc(/C(=C(/C)Cc2ccc(OC)cc2)c2ccc(OCCN3CCCCC3)cc2)cc1`
Reply: 83.6% (inactive)

Ask: Answer with the recorded growth for the molecule listed here: OCCNCCNC(Cc1ccc(Cl)cc1)c1ccccc1 (stereo not drawn)
Reply: 84.3% (inactive)

Ask: Supply growth value. Item: `O=C(CSc1nnc(-c2cc(-c3ccccc3)nc3ccccc23)n1-c1ccccc1)Nc1ccc(C(=O)/C=C/c2ccc(Cl)cc2)cc1`
Reply: 81.5% (inactive)

====

Test system: U251 CNS
procedure summary: NCI-60 one-dose screen, 48 h
condition set: 10 µM unless noted
Compounds without any hit were thinned out: in the full panel of roughly 83,000, 20% have a hit. The source made the active and inactive calls. Rule for the calls: active = growth percent below 10; inactive = the rest.
// one of active, inactive, no free text

# example entries with known answers
compound	class name
CN1CCN(CCOc2ccc(-c3cnc4c(-c5cccc(F)c5F)cnn4c3)cc2)CC1	active
CCN1CCN(CC(=O)Nc2nc3ccc(NCc4ccc(F)cc4)cc3s2)CC1	inactive
Nc1nc2c(c3ncccc13)C(c1cccc(Cl)c1)Cc1ncccc1-2 (stereo not given)	inactive
C#COc1cccc(Nc2ncnc3cc(NC(=O)[C@@H](C)Cl)ccc23)c1	active
O=C(CCl)NNc1nccc(Nc2ccc(S(=O)(=O)Nc3ccncc3)cc2)n1	active

Ask: // return assay outcome for `COc1ccc(C(=O)/C=C/c2ccc(Cl)cc2)cc1S(=O)(=O)Nc1c(N)nc(SC)[nH]c1=O`
Reply: active

====

Tested on: OVCAR-3 ovarian
procedure summary: NCI-60 one-dose screen, 48 h
condition set: 10 µM unless noted
Description: Growth inhibition of the OVCAR-3 human tumor cell line is measured as a screen for anti-cancer activity. Cells are grown in 96 well plates and exposed to the test compound for 48 hours. Compounds are tested at a single concentration, which is 10^-5 M for most compounds. The reported endpoint is percent growth (GI% or GIPRCNT), where numbers from 0 - 100% represent growth inhibition, and numbers from -100% - 0 represent cell death. For example, a value of 40 represents 60% growth inhibition. […]
About 83,000 compounds went through this panel and 20% of them were active in at least one assay; those are over-represented in the sample as a whole. Activity calls are given as the source filed them. Rule for the calls: active = growth percent below 10; inactive = the rest.
Output constraint: value belongs to active, inactive

These recorded examples may help you get a feel for the data.
compound	class name
CC(C)N1C(=O)/C(=c2\sc3n(c2=O)C2C(NN=3)N(C)C(=O)N2C)c2ccccc21 (stereo unspecified)	inactive
COc1ccc(C(=S)N2CCN(c3ccc(Cl)cc3)CC2)cc1	inactive
O=C1/C(=C/c2ccccn2)NC(=S)N1c1ccccc1Cl	inactive

Ask: Which outcome was assigned to Cc1nc2c(c(=O)[nH]1)C(c1ccccc1)c1ccc3ccccc3c1O2 (stereo unspecified) in this test?
Reply: active

====

Test system: NCI-H322M lung
procedure summary: NCI-60 one-dose screen, 48 h (100 = growth as untreated, 0 = no growth, -100 = all killed)
condition set: 10 µM unless noted
Protocol: Growth inhibition of the NCI-H322M human Non-Small Cell Lung tumor cell line is measured as a screen for anti-cancer activity. Cells are grown in 96 well plates and exposed to the test compound for 48 hours. Compounds are tested at a single concentration, which is 10^-5 M for most compounds. The reported endpoint is percent growth (GI% or GIPRCNT), where numbers from 0 - 100% represent growth inhibition, and numbers from -100% - 0 represent cell death. […]
About 83,000 compounds went through this panel and 20% of them were active in at least one assay; those are over-represented in the sample as a whole. Activity calls are given as the source filed them. How the source made its calls: active means growth percent below 10; inactive means the rest.
Here the recorded growth is given for each entry.

compound	growth
Cc1cc(Nc2ccc(C(=O)N3CCCC3)cc2)nc(NCCCNc2ccnc3cc(Cl)ccc23)n1	85.8% (inactive)
O=C1c2ccccc2C(=O)C1c1ccc(Br)cc1	122% (inactive)

Ask: Please list growth recorded for the compound `CO[C@H]1CC(=O)n2c3ccccc3c3c4c(c5c6ccccc6n1c5c32)C(=O)NC4=O`
Reply: 63.5% (inactive)

Ask: Identify the reported growth for the following entry. `Nc1nc(N)c(N=Nc2ccccc2)c(-c2ccccc2)n1`
Reply: 70.1% (inactive)

Ask: Identify growth associated with the compound `O=C1Nc2ccccc2C1(c1c[nH]c2ccccc12)c1c[nH]c2ccccc12`
Reply: -15.6% (active)

Ask: Tell me growth reported for `Nc1[nH]n2cc(-c3ccc(F)cc3)nc2c1N=Nc1ccc(S(N)(=O)=O)cc1`
Reply: 41.9% (inactive)

Ask: Tell me growth reported for CCCCCN(CCCCC)CC(O)c1cc(C)c2ccc3cc(C(C)C)ccc3c2c1 (configuration not stated)
Reply: 76.7% (inactive)

Ask: Item `CC1(C)CC[C@]2(CO)CC[C@]3(C)[C@H](CC[C@@H]4[C@@]5(C)CCCNC(C)(C)[C@@H]5CC[C@]43C)[C@H]2[C@H]1O` : provide growth
Reply: 93.8% (inactive)

Ask: Hello, please tell me recorded growth for this one: `C=C(C)[C@@H]1CC[C@]2(C(=O)N3CCN(C)CC3)CC[C@]3(C)[C@H](CC[C@@H]4[C@@]5(C)CC[C@H](OC(=O)c6ccccc6C(=O)O)C(C)(C)[C@@H]5CC[C@]43C)[C@@H]12`
Reply: 101% (inactive)

Ask: Retrieve growth measured for `C#COc1cccc(Nc2ncnc3cc(NC(=O)[C@@H](C)Cl)ccc23)c1` and print it.
Reply: 38.9% [6.25 µM] (inactive)

Ask: Given `C#CCNC(=O)[C@]1(C)CCC[C@@]2(C)[C@H]1CC=C1C=C(C(C)C)CC[C@@H]12` , respond with its growth.
Reply: 100% (inactive)

Ask: State, in one line, measured growth of COc1ccc(C2=CN3CC=CC3CC2=O)cc1 (configuration not stated)
Reply: 108% (inactive)

Ask: Name the recorded growth of the compound listed here: `Cn1ccc(=O)nc1`
Reply: 82.9% (inactive)

Ask: Query growth for Cn1c2c(c3ccc(Cl)c(Cl)c31)C(C#N)C(C)(C)NC2=O (configuration not stated)
Reply: 91.4% (inactive)

Ask: Give me measured growth, please, for this compound: `O=C(Nc1cnc(Nc2ccc(N3CCOCC3)nc2)nc1Oc1ccc(C(F)(F)F)cc1)c1ccncc1`
Reply: 87.3% (inactive)

Ask: Dear colleague, please send me the reported growth for `Nc1c(C(=O)Nc2cccc(Cl)c2)sc2nc3c(cc12)CCCC3` when you can.
Reply: 108% (inactive)

Ask: Identify the reported growth for the following entry. `CC(C)(C)n1cc(-c2ccnc(NCCCNS(=O)(=O)c3ccc(C(F)(F)F)cc3)c2)c(-c2cccc(F)c2)n1`
Reply: 103% (inactive)

Ask: Could you please provide reported growth for `O=C(Nc1ccc(Cl)cc1)Oc1c(Cl)c(Cl)c(Cl)c(Cl)c1Cl` ? Thanks!
Reply: 95.2% (inactive)

The measured values listed here are drawn from PubChem BioAssay (NCI).
